Source: ChEMBL document CHEMBL3392978

- Test system: NCI-H522
- method-summary: Growth inhibition of human NCI-H522 cells at 10 uM after 72 hrs by MTT assay
- Format: functional
- condition-description: NCI-H522, 72 h, read-out: GI
value-type: inhibition of growth at 10 µM (%)

compound_structure=Cc1ccc(NC(=O)c2cccc(Br)c2)cc1C(=O)Nc1ccc(-c2ncc[nH]2)nc1 units=% value_observed=10.4
compound_structure=Cc1ccc(NC(=O)c2ccc(Cl)c(Cl)c2)cc1C(=O)Nc1ccc(-c2ncc[nH]2)nc1 units=% value_observed=2
compound_structure=O=C(Nc1ccc(Cl)c(C(=O)Nc2ccc(-c3ncc[nH]3)nc2)c1)c1cccc(F)c1 units=% value_observed=7.6
compound_structure=O=C(Nc1ccc(Cl)c(C(=O)Nc2ccc(-c3ncc[nH]3)nc2)c1)c1ccc(Cl)c(Br)c1 units=% value_observed=-15.4
compound_structure=Cc1ccc(NC(=O)c2ccc(F)cc2)cc1C(=O)Nc1ccc(-c2ncc[nH]2)nc1 units=% value_observed=6.3
compound_structure=Cc1ccc(NC(=O)c2ccc(Cl)c(C(F)(F)F)c2)cc1C(=O)Nc1ccc(-c2ncc[nH]2)nc1 units=% value_observed=-11.4
compound_structure=Cc1cc(C(=O)Nc2ccc(Cl)c(C(=O)Nc3ccc(-c4ncc[nH]4)nc3)c2)ccc1Cl units=% value_observed=66.7
compound_structure=O=C(Nc1ccc(Cl)c(C(=O)Nc2ccc(-c3ncc[nH]3)nc2)c1)c1cccc(C(F)(F)F)c1 units=% value_observed=-27.4
compound_structure=O=C(Nc1ccc(Cl)c(C(=O)Nc2ccc(-c3ncc[nH]3)nc2)c1)c1ccc(Cl)c(Cl)c1 units=% value_observed=-21.1
compound_structure=O=C(Nc1ccc(Cl)c(C(=O)Nc2ccc(-c3ncc[nH]3)nc2)c1)c1ccc(Cl)c(C(F)(F)F)c1 units=% value_observed=-3.2
compound_structure=Cc1ccc(NC(=O)c2cccc(F)c2)cc1C(=O)Nc1ccc(-c2ncc[nH]2)nc1 units=% value_observed=8.5
compound_structure=Cc1ccc(C(=O)Nc2ccc(Cl)c(C(=O)Nc3ccc(-c4ncc[nH]4)nc3)c2)cc1 units=% value_observed=17.2
compound_structure=O=C(Nc1ccc(Cl)cc1)c1ccc(Cl)c(C(=O)Nc2ccc(-c3ncc[nH]3)nc2)c1 units=% value_observed=-20
compound_structure=O=C(Nc1ccc(Cl)c(C(=O)Nc2ccc(-c3ncc[nH]3)nc2)c1)c1ccc(Cl)cc1 units=% value_observed=-1.9
compound_structure=O=C(Nc1ccc(Cl)c(C(=O)Nc2ccc(-c3ncc[nH]3)nc2)c1)c1cccc(Cl)c1 units=% value_observed=-1.8
compound_structure=O=C(Nc1ccc(Cl)c(C(=O)Nc2ccc(-c3ncc[nH]3)nc2)c1)c1ccc(F)cc1 units=% value_observed=-8.8
compound_structure=Cc1ccc(NC(=O)c2cccc([N+](=O)[O-])c2)cc1C(=O)Nc1ccc(-c2ncc[nH]2)nc1 units=% value_observed=8.9
compound_structure=Cc1cccc(C(=O)Nc2ccc(Cl)c(C(=O)Nc3ccc(-c4ncc[nH]4)nc3)c2)c1 units=% value_observed=5.3
compound_structure=COc1cccc(C(=O)Nc2ccc(Cl)c(C(=O)Nc3ccc(-c4ncc[nH]4)nc3)c2)c1 units=% value_observed=-2.9
compound_structure=Cc1cc(C(=O)Nc2ccc(C)c(C(=O)Nc3ccc(-c4ncc[nH]4)nc3)c2)ccc1Cl units=% value_observed=12.6
compound_structure=O=C(Nc1cccc(Cl)c1)c1ccc(Cl)c(C(=O)Nc2ccc(-c3ncc[nH]3)nc2)c1 units=% value_observed=-16.2
compound_structure=Cc1ccc(NC(=O)c2ccc(Cl)cc2)cc1C(=O)Nc1ccc(-c2ncc[nH]2)nc1 units=% value_observed=6.4
compound_structure=COc1cccc(C(=O)Nc2ccc(C)c(C(=O)Nc3ccc(-c4ncc[nH]4)nc3)c2)c1 units=% value_observed=8.7
compound_structure=COc1ccc(C(=O)Nc2ccc(C)c(C(=O)Nc3ccc(-c4ncc[nH]4)nc3)c2)cc1 units=% value_observed=27.1
